Species on record: Rattus norvegicus
Measurement description: Open TG-GATES - Regimen: Daily Repeat
Type: toxicity, organism-based, Sprague-Dawley
Parameters: regimen Daily Repeat, gender Male, age 6 weeks
Applied conditions: in vivo, po, 0 mg/kg, […], tissue Blood, route gavage, dose level Control, time 14 day
MCV reference

Examples from the recorded data:
{"columns": ["Compound", "MCV"],
 "data": [
  ["Cn1c(=O)c2[nH]cnc2n(C)c1=O.O [THEOPHYLLINE]", "61.5 fL"],
  ["CCc1cc(C(N)=S)ccn1 [ETHIONAMIDE]", "60.8 fL"],
  ["NC(=O)N/N=C/c1ccc([N+](=O)[O-])o1 [NITROFURAZONE]", "63.2 fL"],
  ["CC(=O)Oc1ccccc1C(=O)O [ASPIRIN]", "59.6 fL"],
  ["Clc1ccccc1CN1CCc2sccc2C1 [TICLOPIDINE]", "58.1 fL"]
]}

API: the following record is the query input.
Task item: Endpoint output: MCV of CSc1ccc2c(c1)N(CCC1CCCCN1C)c1ccccc1S2 (stereo unspecified) [THIORIDAZINE] . Value?
Reply: 61.5 fL

----------
Species: Rattus norvegicus
Measurement description: Open TG-GATES - Regimen: Single
Assay type: toxicity, organism-based, Sprague-Dawley
Parameters: regimen Single, gender Male, age 6 weeks
Applied conditions: in vivo, po, 100 mg/kg, 24 h, tissue Blood, route gavage, dose level Low
Value type: WBC

Task item: Recorded WBC for O=C(O)c1cc(/N=N/c2ccc(S(=O)(=O)Nc3ccccn3)cc2)ccc1O [SULFASALAZINE] , please?
Reply: 86.3 x10_2/uL

Task item: What about this compound? Clc1ccccc1CN1CCc2sccc2C1 [TICLOPIDINE]
Reply: 116 x10_2/uL

Task item: Another compound to check: CCc1cc(C(N)=S)ccn1 [ETHIONAMIDE]
Reply: 110 x10_2/uL

----------
# Lym listing for each entry below
Organism: Rattus norvegicus
Measurement description: Open TG-GATES - Regimen: Daily Repeat
Type: toxicity, organism-based, Sprague-Dawley
Set-up: regimen Daily Repeat, gender Male, age 6 weeks
Applied conditions: in vivo, po, 0 mg/kg, […], tissue Blood, route gavage, dose level Control, time 14 day
The reply should contain only the number, in %.

Solved entries (count: 3):
{"columns": ["Compound", "Quantity unit", "Lym"],
 "data": [
  ["CCc1cc(C(N)=S)ccn1 [ETHIONAMIDE]", "%", 79.6],
  ["NC(=O)N1c2ccccc2C=Cc2ccccc21 [CARBAMAZEPINE]", "%", 82.2],
  ["CCCC(CCC)C(=O)O", "%", 78.6]
]}

Task item: Fill blank: measured Lym of the compound CSc1ccc2c(c1)N(CCC1CCCCN1C)c1ccccc1S2 (stereo not given) is ____.
Reply: 78.4

Task item: One more compound: C[C@H](CS)C(=O)N1CCC[C@H]1C(=O)O
Reply: 80.8

----------
Species on record: Rattus norvegicus
Measurement description: Open TG-GATES - Regimen: Single
Assay type: toxicity, organism-based, Sprague-Dawley
Set-up: regimen Single, gender Male, age 6 weeks
Applied conditions: in vivo, po, 300 mg/kg, 3 h, tissue Plasma, route gavage, dose level Middle
Reported GLC values for a set of compounds
Answer with a number only, understood to be in mg/dL.

{"columns": ["Compound", "GLC / mg/dL"],
 "data": [
  ["O=C(O)c1cc(/N=N/c2ccc(S(=O)(=O)Nc3ccccn3)cc2)ccc1O", 198.2],
  ["CCc1cc(C(N)=S)ccn1 [ETHIONAMIDE]", 200]
]}

Task item: Given Clc1ccccc1CN1CCc2sccc2C1 , state its recorded GLC.
Reply: 194.2
